EXPERIMENT: amyloid nucleation score (Sup35N fusion, yeast selection) (log enrichment); library NNK2; higher = more nucleation; inactive = no reads after selection;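 also: zero at mode of non-aggregating sequences after 7 days selection at 30°C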

SUBSTANCE: GILNRTRPFR
amyloid nucleation score: -0.595
--
SUBSTANCE: CATSISMLEHQ
amyloid nucleation score: 0.556
--
SUBSTANCE: SSSVSRPRCFFRSWFYIHVR
amyloid nucleation score: -1.21
--
SUBSTANCE: DIWPNDLGYVFVLSA
amyloid nucleation score: -0.218
--
SUBSTANCE: PKGNSRYMRLIFDAQLSYTG
amyloid nucleation score: 1.25
--
SUBSTANCE: LIFRSVSVSFIPLLMKDGNG
amyloid nucleation score: -0.042
--
SUBSTANCE: SIFRLDDEGDPVMREPLM
amyloid nucleation score: 1.22
--
SUBSTANCE: TVFYIYMGQDDG
amyloid nucleation score: 5.12
--
SUBSTANCE: QCVKLNTNVLCTVSDYNARG
amyloid nucleation score: 1.2
--
SUBSTANCE: NWSNLEWWL
amyloid nucleation score: 0.054
--
SUBSTANCE: NISFGSYILLRFLMRVE
amyloid nucleation score: 0.58
--
SUBSTANCE: PVSGGVNFNNRLLITWRAFW
amyloid nucleation score: 0.885
--
SUBSTANCE: SLWRNHMMQ
amyloid nucleation score: 0.746
--
SUBSTANCE: EMSRMASNISRMKVSRASKH
amyloid nucleation score: 1.15
--
SUBSTANCE: YEHVIGVWYLGCQGGWVGDH
amyloid nucleation score: 0.354
--
SUBSTANCE: RGLRMTRIISFFGIVGL
amyloid nucleation score: 8.51
--
SUBSTANCE: VISCQKPGDIKTYNRVGTTD
amyloid nucleation score: -0.35
--
SUBSTANCE: TIDFWVRFYVRFYSRDGFYY
amyloid nucleation score: -2.33
--
SUBSTANCE: SNVSKYTKRGDM
amyloid nucleation score: -0.184
--
SUBSTANCE: VLFAWSASDVIVV
amyloid nucleation score: 0.639
--
SUBSTANCE: RFDSPG
amyloid nucleation score: 0.558
--
SUBSTANCE: CRFLRA
amyloid nucleation score: -0.051
--
SUBSTANCE: RILVTGI
amyloid nucleation score: -0.653
--
SUBSTANCE: QSNRKYGETHWFSTCNMHVL
amyloid nucleation score: 0.533
--
SUBSTANCE: CDPWQGYRWLP
amyloid nucleation score: -0.665
--
SUBSTANCE: LRYVEGHGKDITSGGSLEEH
amyloid nucleation score: 1.41
--
SUBSTANCE: MSARECWTIRFPYRVIVWEV
amyloid nucleation score: 0.214
--
SUBSTANCE: FLLPSYERDSSYVAYF
amyloid nucleation score: -0.687
--
SUBSTANCE: FRFTQDMDFRAQFDELSWRL
amyloid nucleation score: 2
--
SUBSTANCE: AIAAHFGLMPMCYLCTG
amyloid nucleation score: 7.25
--
SUBSTANCE: KCDYPGFWMPGQSYKDSILD
amyloid nucleation score: -1.61
--
SUBSTANCE: TFFYYYCMCSRTL
amyloid nucleation score: 7.83
--
SUBSTANCE: RRFLYPVGRGICMENADPFG
amyloid nucleation score: 1.29
--
SUBSTANCE: MKSNSLSGRCSQFHLES
amyloid nucleation score: -0.184
--
SUBSTANCE: VKPWFS
amyloid nucleation score: -0.145
--
SUBSTANCE: SCMFYYCCTDTYKVPYSDAM
amyloid nucleation score: 7.76
--
SUBSTANCE: VNGYIPRNAAVGQYATRALK
amyloid nucleation score: -0.032
--
SUBSTANCE: CTIVYF
amyloid nucleation score: 1.13
--
SUBSTANCE: CCCGRMTSVHVDKPDLYLPL
amyloid nucleation score: -0.047
--
SUBSTANCE: YVSSVAIAFGLSVGLAYYPP
amyloid nucleation score: 5.26
--
SUBSTANCE: DCARERYKLYNRLHWPSLSS
amyloid nucleation score: 0.474
--
SUBSTANCE: SLADDSGNRT
amyloid nucleation score: -0.289
--
SUBSTANCE: GCIGGHRFYSPRSNSVFEVG
amyloid nucleation score: 3.44
--
SUBSTANCE: LGIVHGNNY
amyloid nucleation score: -1.14
--
SUBSTANCE: FMRGLMARLCER
amyloid nucleation score: 0.293
--
SUBSTANCE: VAESVSVT
amyloid nucleation score: 0.6
--
SUBSTANCE: EEWYHADVSCVHRKIPNATR
amyloid nucleation score: 0.644
--
SUBSTANCE: RKEIRGLTMTRPIVDPMRTK
amyloid nucleation score: 0.932
--
SUBSTANCE: FCRLLPSLCTTNLK
amyloid nucleation score: -0.663
--
SUBSTANCE: TNSMNGFFFR
amyloid nucleation score: -1.81
--
SUBSTANCE: SFDKGIDYRFFTFNSNVKYW
amyloid nucleation score: 3.49
--
SUBSTANCE: SDGSREFSCKLGGAGLGDGW
amyloid nucleation score: 0.334

###

EXPERIMENT: amyloid nucleation score (Sup35N fusion, yeast selection) (log enrichment); library NNK2; higher = more nucleation; inactive = no reads after selection

SEQUENCE_CONTENT: MRCWFTFVWCVIYY
amyloid nucleation score: inactive

SEQUENCE_CONTENT: EEVVVVWFIRDKDLALKLVV
amyloid nucleation score: inactive

SEQUENCE_CONTENT: KFNPRPCSFKYLRV
amyloid nucleation score: inactive

###

Examples of substances with documented amyloid nucleation score follow.
EXPERIMENT: amyloid nucleation score (Sup35N fusion, yeast selection) (log enrichment); library NNK2; higher = more nucleation; inactive = no reads after selection

SUBSTANCE: MMLNSINLKYLIWLCN
amyloid nucleation score: 2.73
--
SUBSTANCE: YITVSSESAWHYTDQATFDA
amyloid nucleation score: -0.129
--
SUBSTANCE: RVMSHT
amyloid nucleation score: 0.658
--
SUBSTANCE: LYNRLACL
amyloid nucleation score: 1.86
--
SUBSTANCE: VSLYLYPVGMGMSE
amyloid nucleation score: 1
--
SUBSTANCE: IGVSLTYKIQVSTRLFSTLY
amyloid nucleation score: 3.29
--
SUBSTANCE: WWTAQGCTELTVS
amyloid nucleation score: 0.855
--
SUBSTANCE: NVHRRMSEYVCVDRWEEWVR
amyloid nucleation score: 0.811
--
SUBSTANCE: GSFSEYVLWT
amyloid nucleation score: 0.863
--
SUBSTANCE: FALREYGYLSSYYFCMGGPT
amyloid nucleation score: 3.56
--
SUBSTANCE: FMGFTISFFVRDFAPDLTKR
amyloid nucleation score: 3.1
--
SUBSTANCE: FNSCDAWYCMNSQVSRTTYL
amyloid nucleation score: -0.624
--
SUBSTANCE: NAEFIPGYMISVWTSIATIT
amyloid nucleation score: 0.359
--
SUBSTANCE: SVFVNCNHWYIYSPWPSKRN
amyloid nucleation score: 8.71
--
SUBSTANCE: RKPPMPRFQLDSNRQKG
amyloid nucleation score: 0.313
--
SUBSTANCE: RHHYHSYGSTLVKVRAGQRC
amyloid nucleation score: 4.88

###

EXPERIMENT: amyloid nucleation score (Sup35N fusion, yeast selection) (log enrichment); library NNK3; higher = more nucleation; inactive = no reads after selection

SUBSTANCE: ASHYTVSFFSENDAHRGACR
amyloid nucleation score: inactive
--
SUBSTANCE: SSHIRWHGN
amyloid nucleation score: inactive
--
SUBSTANCE: VYCLFVTCLKGINQWMHDKS
amyloid nucleation score: inactive
--
SUBSTANCE: YVYWREFGACMGSQQWVVRV
amyloid nucleation score: inactive
--
SUBSTANCE: DLCGNPVPVQSSGLGYDGLV
amyloid nucleation score: inactive
--
SUBSTANCE: GNFKCELVSALSDNIICPYM
amyloid nucleation score: inactive
--
SUBSTANCE: VMRGASYFPTELADDDLMPG
amyloid nucleation score: inactive
--
SUBSTANCE: NSLDSRMYGI
amyloid nucleation score: inactive
--
SUBSTANCE: VLRQDISDDQSEAPEMNPHR
amyloid nucleation score: inactive
--
SUBSTANCE: SYYTYVFTIVTPRKTNLWSG
amyloid nucleation score: 0.64
--
SUBSTANCE: IAGFRNGSPANNAVGKPG
amyloid nucleation score: inactive
--
SUBSTANCE: QLIELGRVVTCV
amyloid nucleation score: inactive
--
SUBSTANCE: ANHCLCRGSKYLRKRVNLAI
amyloid nucleation score: inactive
--
SUBSTANCE: DVRIIAV
amyloid nucleation score: inactive
--
SUBSTANCE: NCDNSNGYSTHEIEDRSTLR
amyloid nucleation score: inactive
--
SUBSTANCE: QDTLYMLDPGG
amyloid nucleation score: -0.318
--
SUBSTANCE: VQYNHLRVVSHDVNENGEPR
amyloid nucleation score: inactive
--
SUBSTANCE: GLYMKVKFGYTEWQDFGQSS
amyloid nucleation score: -0.237
--
SUBSTANCE: IIGWASWCVGKGHLTFCQLV
amyloid nucleation score: inactive
--
SUBSTANCE: LARRNTLVEGHDD
amyloid nucleation score: inactive
--
SUBSTANCE: IEKASACNG
amyloid nucleation score: inactive
--
SUBSTANCE: LRFNVDAMFSTSVVRIQKCL
amyloid nucleation score: inactive
--
SUBSTANCE: LIDWTDNRYPYRHHHFCPNA
amyloid nucleation score: inactive
--
SUBSTANCE: SVYECNLIRDFIDRQGPNLA
amyloid nucleation score: 2.25
--
SUBSTANCE: PFNRVVVHSDAARGCRPCRP
amyloid nucleation score: inactive
--
SUBSTANCE: VLLSNNRILYETFL
amyloid nucleation score: inactive
--
SUBSTANCE: IIYMMLYVKEGMSWTSLPDQ
amyloid nucleation score: inactive
--
SUBSTANCE: VSMCNLNGVLPLNLFRLGLC
amyloid nucleation score: inactive
--
SUBSTANCE: RDSRRETKTNIWIVRYTLW
amyloid nucleation score: inactive
--
SUBSTANCE: LNVRAVFIVTRISVSYSRAR
amyloid nucleation score: 0.081
--
SUBSTANCE: KVLSYRETVPRLICLIHSRP
amyloid nucleation score: inactive
--
SUBSTANCE: SLESWFVTRRCSRYESTFMS
amyloid nucleation score: inactive
--
SUBSTANCE: WLWISMVYCHLKDIRIIVGN
amyloid nucleation score: inactive
